Test: Hemolytic activity against human erythrocytes at 50 uM incubated for 1 hr at 570 nm by spectrophotometry
Format: ADME, tissue-based, Erythrocyte
Details: read-out: Activity
hemolysis at 1 h, 50 µM vs 5%: less than gives 1; not less than gives 0.

These recorded examples may help you get a feel for the data.
O=C(C1=C(O)C(=O)N(c2nnc(SCc3ccccc3)s2)C1c1ccccc1F)c1cc2ccccc2o1 (stereo not drawn)	1
COc1cc(C2C(C(=O)c3cc4ccccc4o3)=C(O)C(=O)N2c2nnc(SCc3ccccc3Cl)s2)ccc1O (stereo not drawn)	1
O=C(C1=C(O)C(=O)N(c2nnc(SCc3ccc(F)cc3)s2)C1c1cccc(O)c1)c1cc2ccccc2o1 (stereo not drawn)	1
O=C(C1=C(O)C(=O)N(c2nnc(SCc3ccccc3)s2)C1c1ccccc1)c1cc2ccccc2o1 (stereo not drawn)	1
Cc1ccc(CSc2nnc(N3C(=O)C(O)=C(C(=O)c4cc5ccccc5o4)C3c3cccc(O)c3)s2)cc1 (stereo not drawn)	1

**Q:** Item `CCOC(=O)c1c(CN2CCN(C)CC2)n(-c2ccccc2)c2ccc(OS(=O)(=O)c3ccc(C)cc3)cc12` : hemolysis at 1 h, 50 µM beneath 5%, strictly?
**A:** 0

**Q:** Dear colleague, could you confirm whether hemolysis at 1 h, 50 µM of O=C(C1=C(O)C(=O)N(c2nnc(SCc3ccc(Cl)cc3)s2)C1c1cccc(O)c1)c1cc2ccccc2o1 (stereo not drawn) falls below 5%? Thanks.
**A:** 0

**Q:** Hi there! Is hemolysis at 1 h, 50 µM for `O=C(O)COc1ccc(/C=C2/SC(=O)N(Cc3ccc(F)cc3)C2=O)cc1Br` below 5%, do you know?
**A:** 0
